Source listed as patent US20090155209A1.

Experiment: Single ascending dose study, fasted and fed: safety and non-compartmental plasma PK
Type: in vivo, healthy volunteers (human)
Settings: human, plasma, oral, 800 mg, median; single 800 mg dose, fasting state; plasma; N=8; read-out: T1/2 (converted)
Protocol: A single ascending dose (SAD) study of the compound 100 was conducted in healthy volunteers. The compound 100 was administered as monotherapy both with and without food. The safety and pharmacokinetic profile of the single dose of the compound 100 was assessed. Interim, blinded data were used for Pharmacokinetic (PK) study relating to food effects. […] The upper and lower limits of quantitation (ULOQ and LLOQ) are 100 and 0.01 ng/mL, respectively. […]
observable: half-life (h)
Expressed in h, but write only the number.

"CC(C)(C)OC(=O)N[C@H]1CCCCC/C=C\[C@@H]2C[C@@]2(C(=O)NS(=O)(=O)C2CC2)NC(=O)[C@@H]2C[C@@H](OC(=O)N3Cc4cccc(F)c4C3)CN2C1=O" yielded half-life of 1.91
